- Tested On: EGFR (Homo sapiens (Human))
- Sequence (P00533 25-1210): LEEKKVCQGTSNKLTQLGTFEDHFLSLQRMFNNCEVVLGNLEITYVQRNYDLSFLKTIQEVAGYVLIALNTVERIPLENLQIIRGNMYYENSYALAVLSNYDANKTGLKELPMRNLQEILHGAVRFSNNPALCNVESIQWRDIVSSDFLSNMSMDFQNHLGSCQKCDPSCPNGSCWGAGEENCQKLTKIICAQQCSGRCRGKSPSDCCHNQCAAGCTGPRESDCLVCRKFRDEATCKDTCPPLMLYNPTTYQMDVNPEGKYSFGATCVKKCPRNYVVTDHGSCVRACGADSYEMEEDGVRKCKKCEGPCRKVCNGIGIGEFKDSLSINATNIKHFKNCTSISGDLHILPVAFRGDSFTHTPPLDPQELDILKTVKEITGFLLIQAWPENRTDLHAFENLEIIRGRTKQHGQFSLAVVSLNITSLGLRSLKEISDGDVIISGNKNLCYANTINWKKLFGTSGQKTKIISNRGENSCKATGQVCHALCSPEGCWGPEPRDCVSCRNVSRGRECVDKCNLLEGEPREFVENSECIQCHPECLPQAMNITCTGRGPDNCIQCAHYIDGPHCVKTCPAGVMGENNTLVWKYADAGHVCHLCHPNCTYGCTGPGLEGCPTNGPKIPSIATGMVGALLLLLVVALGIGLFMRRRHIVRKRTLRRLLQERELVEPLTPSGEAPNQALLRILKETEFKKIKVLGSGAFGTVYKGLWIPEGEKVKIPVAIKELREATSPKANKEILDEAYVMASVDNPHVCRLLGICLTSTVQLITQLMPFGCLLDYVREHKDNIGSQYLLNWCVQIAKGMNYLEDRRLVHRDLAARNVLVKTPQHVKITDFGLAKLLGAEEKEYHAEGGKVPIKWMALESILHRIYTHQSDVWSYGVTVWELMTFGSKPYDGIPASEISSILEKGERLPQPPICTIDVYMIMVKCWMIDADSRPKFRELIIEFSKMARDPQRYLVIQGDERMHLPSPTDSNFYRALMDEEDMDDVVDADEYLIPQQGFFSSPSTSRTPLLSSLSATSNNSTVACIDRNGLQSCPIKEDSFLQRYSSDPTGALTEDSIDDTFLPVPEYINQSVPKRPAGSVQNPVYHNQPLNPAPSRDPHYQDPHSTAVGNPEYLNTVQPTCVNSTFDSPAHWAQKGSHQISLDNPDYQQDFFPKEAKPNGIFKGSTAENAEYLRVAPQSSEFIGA
- Assay Explanation: ErbB Enzyme Assay (HTRF KinEASE-TK), Assay 3
- Format: biochemical
- Recorded Conditions: EGFR enzyme assay
Measurement Name: IC50 (µM)

{"Compound": "C=CC(=O)N1CCN(c2ccc3ncnc(Nc4ccc(Oc5ccc6c(c5)ncn6C)c(Cl)c4F)c3n2)CC1(C)C [Example 262]", "Unit Tag": "µM", "Qualifier Operator": "≥", "Result Number": 10}
{"Compound": "C=CC(=O)N1CCN(c2ccc3ncnc(Nc4cc(C)c(Oc5ccn6ncnc6c5)cc4F)c3n2)C[C@@H]1C1CC1 [Example 284]", "Unit Tag": "µM", "Qualifier Operator": "≥", "Result Number": 10}
{"Compound": "C=CC(=O)N1C2CCC1CN(c1ccc3ncnc(Nc4cc(C)c(Oc5ccn6ncnc6c5)cc4F)c3n1)C2 [Example 443]", "Unit Tag": "µM", "Qualifier Operator": "=", "Result Number": 4.15}
{"Compound": "C=CC(=O)N1CC2(C1)CN(c1ccc3ncnc(Nc4cc(Cl)c(Oc5ccn6ncnc6c5)cc4F)c3n1)C2 [Example 342]", "Unit Tag": "µM", "Qualifier Operator": "≥", "Result Number": 10}
{"Compound": "C=CC(=O)N1C[C@H]2C[C@@H]1CN(c1ccc3ncnc(Nc4cc(Cl)c(Oc5ccn6ncnc6c5)cc4F)c3n1)C2 [Example 292]", "Unit Tag": "µM", "Qualifier Operator": "≥", "Result Number": 10}
{"Compound": "C=CC(=O)N1CCN(c2ccc3ncnc(Nc4cc(Cl)c(Oc5ccn6ncnc6c5)cc4F)c3n2)CC1(C)C [Example 326]", "Unit Tag": "µM", "Qualifier Operator": "=", "Result Number": 2.86}
{"Compound": "C=CC(=O)N1CC2CCC(C1)N2c1ccc2ncnc(Nc3ccc(Oc4ccn5ncnc5c4)c(Cl)c3F)c2n1 [Example 445]", "Unit Tag": "µM", "Qualifier Operator": "=", "Result Number": 0.0336}
